# study-target: T1, histidine-tagged human SORT1 (R&D Systems) (human, UniProt Q99523 78-755)
# T1 construct: Bought recombinant protein; also called His-tagged human SORT1; not shown: histidine tag
# T1 sequence: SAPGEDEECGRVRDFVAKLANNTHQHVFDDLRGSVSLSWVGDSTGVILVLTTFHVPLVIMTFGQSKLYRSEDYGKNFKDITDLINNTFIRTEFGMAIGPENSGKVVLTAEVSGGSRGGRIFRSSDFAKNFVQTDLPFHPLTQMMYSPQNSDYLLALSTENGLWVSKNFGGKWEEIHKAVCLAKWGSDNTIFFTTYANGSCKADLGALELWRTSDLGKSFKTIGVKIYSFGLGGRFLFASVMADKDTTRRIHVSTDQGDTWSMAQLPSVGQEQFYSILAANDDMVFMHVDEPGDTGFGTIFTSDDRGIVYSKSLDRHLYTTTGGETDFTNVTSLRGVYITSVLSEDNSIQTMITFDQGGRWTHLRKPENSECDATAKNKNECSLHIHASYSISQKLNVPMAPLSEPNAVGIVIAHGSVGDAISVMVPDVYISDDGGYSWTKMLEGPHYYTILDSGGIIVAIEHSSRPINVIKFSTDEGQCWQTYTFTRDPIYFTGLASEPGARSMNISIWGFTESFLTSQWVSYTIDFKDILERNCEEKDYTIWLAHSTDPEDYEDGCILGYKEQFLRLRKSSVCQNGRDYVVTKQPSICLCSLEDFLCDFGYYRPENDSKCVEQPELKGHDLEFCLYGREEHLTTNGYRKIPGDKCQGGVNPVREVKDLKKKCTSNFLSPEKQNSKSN
# test-name: BLI (Octet RED96), antibody captured on anti-human IgG Fc sensor, 20 nM His-tagged human SORT1, 1:1 fit
Recorded kon, one value per entry.
Please state the figure in M⁻¹ s⁻¹; there is no need to write the unit.

query: Returns the measured kon for the input binder. Input: S-60-15.10 [N33E] (antibody, human IgG1, kappa, L234A L235A, V domains shown, huIgG1 LALAPS) VH: QVQLQESGPGLVKPSETLSLTCAVSGYSISSGYYWGWIRQPPGKGLEWIGTIYHSGSTYYNPSLKSRVTISVDTSKNQFSLKLSSVTAADTAVYYCARQGSIKQGYYGMDVWGQGTTVTVSS VL: DIVMTQSPLSLPVTPGEPASISCRSSQSLLRSEGYNYLDWYLQKPGQSPQLLIYLGSNRASGVPDRFSGSGSGTDFTLKISRAEAEDVGVYYCMQQQEAPLTFGGGTKVEIKR
result: 676000

query: For S-60-15.6 [N33H] (antibody, human IgG1, kappa, L234A L235A, V domains shown, huIgG1 LALAPS) VH: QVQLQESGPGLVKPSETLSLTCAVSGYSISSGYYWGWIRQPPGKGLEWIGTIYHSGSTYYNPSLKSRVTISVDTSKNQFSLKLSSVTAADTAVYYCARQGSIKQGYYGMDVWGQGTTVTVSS VL: DIVMTQSPLSLPVTPGEPASISCRSSQSLLRSHGYNYLDWYLQKPGQSPQLLIYLGSNRASGVPDRFSGSGSGTDFTLKISRAEAEDVGVYYCMQQQEAPLTFGGGTKVEIKR then?
result: 548000

query: Now consider S-60-15.12 [N33F] (antibody, human IgG1, kappa, L234A L235A, V domains shown, huIgG1 LALAPS) VH: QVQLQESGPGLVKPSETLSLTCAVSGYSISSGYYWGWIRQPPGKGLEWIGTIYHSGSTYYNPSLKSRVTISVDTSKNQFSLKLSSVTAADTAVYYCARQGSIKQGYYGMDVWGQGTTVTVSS VL: DIVMTQSPLSLPVTPGEPASISCRSSQSLLRSFGYNYLDWYLQKPGQSPQLLIYLGSNRASGVPDRFSGSGSGTDFTLKISRAEAEDVGVYYCMQQQEAPLTFGGGTKVEIKR and answer again.
result: 280000
